- subject_of_test: heIF4E1b (Homo sapiens)
- Construct: made in house; host or cells: E. coli Rosetta2(DE3)
- Sequence (A6NMX2 1-242): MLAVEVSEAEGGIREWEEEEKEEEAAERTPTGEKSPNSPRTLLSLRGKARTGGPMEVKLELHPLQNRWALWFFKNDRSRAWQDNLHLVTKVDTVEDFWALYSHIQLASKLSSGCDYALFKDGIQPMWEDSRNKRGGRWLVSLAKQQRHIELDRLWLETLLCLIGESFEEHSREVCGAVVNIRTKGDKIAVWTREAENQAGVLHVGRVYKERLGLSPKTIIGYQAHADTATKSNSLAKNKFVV
- test_method_notes: time-synchronized fluorescence titration of cap analogue binding
- measurement_conditions: equilibrium association constant; buffer without glycerol
measurement_type: Kas − glycerol heIF4E1b (μM^− 1)

a: Cn1c[n+]([C@@H]2O[C@H](COP(=O)(O)OP(=O)(O)OP(=O)(O)OP(=O)(O)O)[C@@H](O)[C@H]2O)c2nc(N)[nH]c(=O)c21
b: Nc1nc2c(ncn2[C@@H]2O[C@H](COP(=O)(O)OP(=O)(O)OP(=O)(O)O)[C@@H](O)[C@H]2O)c(=O)[nH]1 [GTP, reference compound]
Returns: the argument ( a or b ) having the larger Kas − glycerol heIF4E1b. Bench note: the answer is the label of the chosen record.
a

P: Cn1c[n+]([C@@H]2O[C@H](COP(=O)(O)O)[C@@H](O)[C@H]2O)c2nc(N)[nH]c(=O)c21
Q: CCn1c[n+]([C@@H]2O[C@H](COP(=O)(O)OP(=O)(O)OP(=O)(O)O)[C@@H](O)[C@H]2O)c2nc(N)[nH]c(=O)c21
Parameter metric = Kas − glycerol heIF4E1b. Return the lower-valued option from P and Q . Please respond with the label that marks your chosen entry.
P
(P: 0.628 μM^− 1, Q: 7.34 μM^− 1)

A: Cn1c[n+]([C@@H]2O[C@H](COP(=O)(O)OP(=O)([O-])OP(=O)(O)OC[C@H]3O[C@@H](n4cnc5c(=O)[nH]c(N)nc54)[C@H](O)[C@@H]3O)[C@@H](O)[C@H]2O)c2nc(N)[nH]c(=O)c21
B: Cn1c[n+]([C@@H]2O[C@H](COP(=O)(O)OP(=O)(O)OP(=O)(O)OC[C@H]3O[C@@H](n4cnc5c(N)ncnc54)[C@H](O)[C@@H]3O)[C@@H](O)[C@H]2O)c2nc(N)[nH]c(=O)c21
Hi! Which is lower in terms of Kas − glycerol heIF4E1b, the first one A or the second one B ? API: response body contains the label of the selected item.
B

====

- subject_of_test: XeIF4E1a (Xenopus laevis)
- Construct: made in house; host or cells: E. coli Rosetta2(DE3)
- test_method_notes: time-synchronized fluorescence titration of cap analogue binding
- measurement_conditions: change relative to m^7GTP; 10% glycerol
measurement_type: ΔΔG^o + glycerol XeIF4E1a (kcal/mol)

Observe how each entry below is paired with its result.
Cn1c[n+]([C@@H]2O[C@H](COP(=O)(O)OP(=O)(O)OP(=O)(O)OC[C@H]3O[C@@H](n4cnc5c(N)ncnc54)[C@H](O)[C@@H]3O)[C@@H](O)[C@H]2O)c2nc(N)[nH]c(=O)c21 | 1.717
CN(C)c1nc2c(c(=O)[nH]1)[n+](C)cn2[C@@H]1O[C@H](COP(=O)(O)OP(=O)(O)OP(=O)(O)O)[C@@H](O)[C@H]1O | 2.844

a: CCn1c[n+]([C@@H]2O[C@H](COP(=O)(O)OP(=O)(O)OP(=O)(O)O)[C@@H](O)[C@H]2O)c2nc(N)[nH]c(=O)c21
b: Cn1c[n+]([C@@H]2O[C@H](COP(=O)(O)OP(=O)([O-])OP(=O)(O)OC[C@H]3O[C@@H](n4cnc5c(=O)[nH]c(N)nc54)[C@H](O)[C@@H]3O)[C@@H](O)[C@H]2O)c2nc(N)[nH]c(=O)c21
# argmax over ΔΔG^o + glycerol XeIF4E1a for candidates a and b State the label of the item chosen.
b

====

- System: XeIF4E1bΔN27
- test_method_notes: time-synchronized fluorescence titration of cap analogue binding
- Parameters: species or system Xenopus laevis
- measurement_conditions: 10% glycerol
measurement_type: Ratio Kas (X4E1a) to Kas (X4E1bΔN27)

Cn1c[n+]([C@@H]2O[C@H](COP(=O)(O)OP(=O)([O-])OP(=O)(O)OC[C@H]3O[C@@H](n4cnc5c(=O)[nH]c(N)nc54)[C@H](O)[C@@H]3O)[C@@H](O)[C@H]2O)c2nc(N)[nH]c(=O)c21 [m^7GpppG] | 2.59

A: Cn1c[n+]([C@@H]2O[C@H](COP(=O)(O)OP(=O)(O)OP(=O)(O)OP(=O)(O)OP(=O)(O)O)[C@@H](O)[C@H]2O)c2nc(N)[nH]c(=O)c21 [m^7Gp5]
B: Nc1nc2c(c(=O)[nH]1)n(Cc1ccccc1)c[n+]2[C@@H]1O[C@H](COP(=O)(O)OP(=O)(O)O)[C@@H](O)[C@H]1O [bn^7GDP]
// max by Ratio Kas (X4E1a) to Kas (X4E1bΔN27) over [ A , B ] Output the label that corresponds to your choice.
A
(A: 3.50, B: 1.38)

====

- subject_of_test: XeIF4E1a (Xenopus laevis, UniProt P48597)
- Construct: made in house; host or cells: E. coli Rosetta2(DE3)
- Sequence (P48597 whole entry): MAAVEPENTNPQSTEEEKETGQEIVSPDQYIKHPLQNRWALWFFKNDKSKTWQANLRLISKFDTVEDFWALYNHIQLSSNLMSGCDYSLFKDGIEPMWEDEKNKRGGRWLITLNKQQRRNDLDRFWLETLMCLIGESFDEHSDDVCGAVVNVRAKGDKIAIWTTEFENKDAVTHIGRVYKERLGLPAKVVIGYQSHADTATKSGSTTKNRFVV
- test_method_notes: time-synchronized fluorescence titration of cap analogue binding
- measurement_conditions: change relative to m^7GTP; without glycerol
measurement_type: ΔΔG^o − glycerol XeIF4E1a (kcal/mol)

Cn1c[n+]([C@@H]2O[C@H](COP(=O)(O)OP(=O)([O-])OP(=O)(O)OC[C@H]3O[C@@H](n4cnc5c(=O)[nH]c(N)nc54)[C@H](O)[C@@H]3O)[C@@H](O)[C@H]2O)c2nc(N)[nH]c(=O)c21 [m^7GpppG] | 1.382

I: Cn1c[n+]([C@@H]2O[C@H](COP(=O)(O)OP(=O)(O)OP(=O)(O)OC[C@H]3O[C@@H](n4cnc5c(N)ncnc54)[C@H](O)[C@@H]3O)[C@@H](O)[C@H]2O)c2nc(N)[nH]c(=O)c21 [m^7GpppA]
II: CCn1c[n+]([C@@H]2O[C@H](COP(=O)(O)OP(=O)(O)OP(=O)(O)O)[C@@H](O)[C@H]2O)c2nc(N)[nH]c(=O)c21 [et^7GTP]
III: CN(C)c1nc2c(c(=O)[nH]1)[n+](C)cn2[C@@H]1O[C@H](COP(=O)(O)OP(=O)(O)OP(=O)(O)O)[C@@H](O)[C@H]1O [m^2,2,7GTP]
Sequence the entries by ΔΔG^o − glycerol XeIF4E1a, beginning with the highest number. Give me the labels in the order the question wants.
III, I, II
(III: 2.897 kcal/mol, I: 1.779 kcal/mol, II: 0.984 kcal/mol)

====

- Test system: XeIF4E1bΔN27
- test_method_notes: time-synchronized fluorescence titration of cap analogue binding
- Set-up: species or system Xenopus laevis
- measurement_conditions: change relative to m^7GTP; 10% glycerol
measurement_type: ΔΔG^o + glycerol XeIF4E1bΔN27 (kcal/mol)

A: Cn1c[n+]([C@@H]2O[C@H](COP(=O)(O)OP(=O)(O)OP(=O)(O)OC[C@H]3O[C@@H](n4cnc5c(N)ncnc54)[C@H](O)[C@@H]3O)[C@@H](O)[C@H]2O)c2nc(N)[nH]c(=O)c21 [m^7GpppA]
B: CCn1c[n+]([C@@H]2O[C@H](COP(=O)(O)OP(=O)(O)OP(=O)(O)O)[C@@H](O)[C@H]2O)c2nc(N)[nH]c(=O)c21 [et^7GTP]
Between these two entries, A and B , state which has the higher ΔΔG^o + glycerol XeIF4E1bΔN27. Answer with the label corresponding to your selection.
A

P: Cn1c[n+]([C@@H]2O[C@H](COP(=O)(O)OP(=O)([O-])OP(=O)(O)OC[C@H]3O[C@@H](n4cnc5c(=O)[nH]c(N)nc54)[C@H](O)[C@@H]3O)[C@@H](O)[C@H]2O)c2nc(N)[nH]c(=O)c21 [m^7GpppG]
Q: CN(C)c1nc2c(c(=O)[nH]1)[n+](C)cn2[C@@H]1O[C@H](COP(=O)(O)OP(=O)(O)OP(=O)(O)O)[C@@H](O)[C@H]1O [m^2,2,7GTP]
Compare reported ΔΔG^o + glycerol XeIF4E1bΔN27 values for P and Q . Which is lower? Provide the label of your selected option as the answer.
P
(P: 1.268 kcal/mol, Q: 2.00 kcal/mol)

====

- subject_of_test: X4E1a2 (E101S/K102R) (Xenopus laevis, UniProt P48597, E101S/K102R)
- Construct: made in house; host or cells: E. coli Rosetta2(DE3)
- Sequence (P48597 whole entry E101S/K102R): as the sequence (P48597 whole entry) above, with E101S, K102R counted along it
- test_method_notes: fluorescence titration, XeIF4E1a mutant
- Type: binding
- measurement_conditions: mutant (E101S/K102R) of XeIF4E1a
- Method: We tested the effect on cap-binding activity of these positions in the fluorescence assay with six mutated recombinant versions of Xenopus eIF4E1a (Fig. S4). […] Equilibrium association constants (Kas) were determined by fitting the theoretical dependence of fluorescence intensity on the total concentration of the cap analogue to the experimental data points, according to the equation described previously (see Ref. [22] and Fig. S2c). […]
measurement_type: Kas X4E1a2 (µM⁻¹)

Consider the worked cases shown below.
Cn1c[n+]([C@@H]2O[C@H](COP(=O)(O)OP(=O)([O-])O)[C@@H](O)[C@H]2O)c2nc(N)[nH]c(=O)c21 | 8.80
Nc1nc2c(c(=O)[nH]1)n(Cc1ccccc1)c[n+]2[C@@H]1O[C@H](COP(=O)(O)OP(=O)(O)O)[C@@H](O)[C@H]1O | 8.86

1: CCn1c[n+]([C@@H]2O[C@H](COP(=O)(O)OP(=O)(O)OP(=O)(O)O)[C@@H](O)[C@H]2O)c2nc(N)[nH]c(=O)c21
2: Cn1c[n+]([C@@H]2O[C@H](COP(=O)(O)OP(=O)(O)OP(=O)(O)OP(=O)(O)OP(=O)(O)O)[C@@H](O)[C@H]2O)c2nc(N)[nH]c(=O)c21
3: Cn1c[n+]([C@@H]2O[C@H](COP(=O)(O)OP(=O)([O-])OP(=O)(O)OC[C@H]3O[C@@H](n4cnc5c(=O)[nH]c(N)nc54)[C@H](O)[C@@H]3O)[C@@H](O)[C@H]2O)c2nc(N)[nH]c(=O)c21
// ranking: key=Kas X4E1a2, reverse=True State the ranking by listing the labels in the requested order.
2, 1, 3
(2: 280 µM⁻¹, 1: 7.132 µM⁻¹, 3: 2.81 µM⁻¹)
